Listed next: entries and their corresponding pIC50.
# test_system: CDK2:Cyclin A (Homo sapiens)
pIC50: −log10 of the molar value.
measured_attribute: pIC50

>>> reported("O=C(Nc1cccc2sc(Nc3ccccc3)nc12)Oc1ccccc1")
"< 4.00"
>>> reported("O=C(Nc1ccccc1)Nc1cccc2nc(Nc3ccccc3)sc12")
"< 4.00"
>>> reported("O=C(Nc1ccccc1)Nc1cccc2sc(Nc3ccccc3)nc12")
"< 4.00"
>>> reported("O=C(Nc1cccc2sc(Nc3ccccc3)nc12)c1cc([N+](=O)[O-])cc([N+](=O)[O-])c1")
"< 4.00"
>>> reported("CCc1ccc(C(=O)Nc2cccc3sc(Nc4ccccc4)nc23)s1")
"< 4.00"
